- System: 786-0 renal
- assayProcedure: NCI-60 one-dose screen, 48 h (100 = growth as untreated, 0 = no growth, -100 = all killed)
- conditionLabel: 10 µM unless noted
The panel holds about 83,000 compounds, 20% with a hit somewhere; the sample as a whole holds those more often.
Threshold check on growth: at or above 90% gives yes (1), strictly below gives no (0).

Could you verify whether the entry Cc1cc(=O)oc2cc(Oc3nc(Br)cn4c(Br)cnc34)ccc12 shows growth of no less than 90%?
no (0)

Could you verify whether the entry O=C1CCC(C(=O)N/N=C/c2cc(F)ccc2F)N1 (stereo unspecified) shows growth of no less than 90%?
yes (1)

Could you verify whether the entry C=C(C)[C@@H]1CC[C@]2(C)[C@H](C=CC3=C4C[C@@](C)(CO)CC[C@]4(C)CC[C@]32C)[C@@]1(C)CCCN shows growth of no less than 90%?
no (0)

Could you verify whether the entry CN(C)CCCC1(c2ccc(F)cc2)OCc2cc(-c3csc4ccccc34)ccc21 (stereo unspecified) shows growth of no less than 90%?
no (0)

Could you verify whether the entry CC(=O)Nc1sc2c(c1-c1nc3ccccc3s1)CNC2 shows growth of no less than 90%?
no (0)

Could you verify whether the entry Clc1ccc(-c2nc(C(Cl)Cl)nc3cc(-c4ccccc4)nn23)cc1 shows growth of no less than 90%?
no (0)

Could you verify whether the entry COCCn1cc(-c2csc(-c3c[nH]c4ccc(F)cc34)n2)c2cccnc21 shows growth of no less than 90%?
no (0)

Could you verify whether the entry CCN(CC)CCOc1ccc2c(-c3ccccc3)c(-c3ccc(OC)cc3)c(=O)oc2c1 shows growth of no less than 90%?
no (0)

Could you verify whether the entry Nc1[nH]nc2nc(-c3ccccc3)n3c4ccccc4nc3c12 shows growth of no less than 90%?
yes (1)

Could you verify whether the entry O=C1O[C@@H](c2ccccc2Cl)[C@@H]2c3cc4c(cc3CCN12)OCO4 shows growth of no less than 90%?
yes (1)

###

Please go through the items and note down their growth.
- System: SK-OV-3 ovarian
- assayProcedure: NCI-60 one-dose screen, 48 h (100 = growth as untreated, 0 = no growth, -100 = all killed)
- conditionLabel: 10 µM unless noted
About 83,000 compounds went through this panel and 20% of them were active in at least one assay; those are over-represented in the sample as a whole.
Give the number; % is assumed, so skip it.

Short answer on SK-OV-3 ovarian for CN(C)C1CN(C(=O)c2cc(-c3ccc4ncnc(N5CCc6cc(F)c(Cl)cc65)c4c3)cnc2N)C1 , growth: 23.1

Short answer on SK-OV-3 ovarian for CCOC(=O)C1=C(CC(O)c2ccc(OC)cc2OC)NC(=O)NC1c1ccccc1 (stereo not given) , growth: 114

Short answer on SK-OV-3 ovarian for O=c1cc(CP(=O)(O)O)c2cc(O)c(-c3ccccc3)cc2o1 , growth: 102

Short answer on SK-OV-3 ovarian for CCOC(=O)c1c(C)nc2c(c1N)C(=O)C(=O)N2Cc1ccc(OC)cc1 , growth: 108

Short answer on SK-OV-3 ovarian for COc1ccc(-c2cn(Cc3cc4ccccc4s3)nn2)cc1OCCN1CCCCC1 , growth: 93.1

Short answer on SK-OV-3 ovarian for CCN(CC)CCCC(Cc1ccccc1)Nc1c2ccc(Cl)cc2nc2ccc(OC)cc12 (stereo not given) , growth: 101

Short answer on SK-OV-3 ovarian for CC(=O)c1sc(-c2ccc(F)cc2)cc1O , growth: 102

Short answer on SK-OV-3 ovarian for Cc1ccc(-c2csc(NC(=O)CSc3nc(N)cc(N)n3)n2)cc1 , growth: 88

Short answer on SK-OV-3 ovarian for CCN1C(=O)N(c2ccccc2)C2NC(=S)N(/N=C/C=C/c3ccccc3OC)C21 (stereo not given) , growth: 31.6

Short answer on SK-OV-3 ovarian for c1cc(OCCCCCOc2cccc(-c3nc4ccccc4[nH]3)c2)cc(-c2nc3ccccc3[nH]2)c1 , growth: 23.9
